Molecular target: OCT1 Phe244Ala variant (Homo sapiens, UniProt O15245, F244A)
Sequence (O15245 1-554 F244A): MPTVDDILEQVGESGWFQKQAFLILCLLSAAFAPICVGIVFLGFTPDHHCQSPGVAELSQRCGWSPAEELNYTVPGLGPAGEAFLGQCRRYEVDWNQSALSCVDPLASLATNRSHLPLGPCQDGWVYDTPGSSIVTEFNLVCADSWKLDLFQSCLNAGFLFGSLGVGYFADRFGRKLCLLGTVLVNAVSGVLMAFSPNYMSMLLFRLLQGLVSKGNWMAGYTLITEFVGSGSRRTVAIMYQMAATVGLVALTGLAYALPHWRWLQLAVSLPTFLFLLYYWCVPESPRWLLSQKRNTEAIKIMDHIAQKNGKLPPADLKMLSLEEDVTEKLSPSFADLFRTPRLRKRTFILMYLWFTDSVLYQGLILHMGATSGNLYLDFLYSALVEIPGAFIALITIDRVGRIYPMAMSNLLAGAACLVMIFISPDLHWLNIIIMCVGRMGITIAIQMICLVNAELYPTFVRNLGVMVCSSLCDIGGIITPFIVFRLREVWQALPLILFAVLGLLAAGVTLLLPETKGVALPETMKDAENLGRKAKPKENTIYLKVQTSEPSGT
Experiment: Concentration-dependent uptake kinetics, HEK293 cells overexpressing OCT1 Phe244Ala;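 note: cells exposed to rising substrate concentrations in buffer, intracellular drug measured by HPLC-tandem mass spectrometry, quantified against a standard curve, uptake referenced to empty vector-transfected HEK293 controls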
Conditions: human, HEK293 cells overexpressing OCT1 Phe244Ala
measured_endpoint: Km at 2 min (mM)
Answer in mM, number only, no unit symbol.

Prompt: Field: Km at 2 min (OCT1 Phe244Ala variant (Homo sapiens, UniProt O15245, F244A)). Entry: "CN(C)C(=N)N=C(N)N"
Response: 2.83

Value source: paper PMC11602988
